target: Potassium voltage-gated channel subfamily KQT member 2 (Rattus norvegicus); experiment: rat KCNQ2 potassium channel inhibitors, primary screen, cell-based, CHO-K1, FluxOR thallium flux, B-score (AID 2156); settings: 20 min, at 10 µM
Hit rate of the full screen: of about 310,000 compounds, about 3,400 (1.1%) were called active.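 How the source made its calls: active means fluorescence ratio B-score at most minus 3 library SDs, with starting brightness B-score within 2 library SDs (cut at about -5.5 in these data); inactive means the rest, inconclusive results apart.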 Many of the other results were omitted from the sample, so actives are more common in it than they were. Square brackets hold non-standard residues; d marks the D form. Peptide text beside a SMILES is read from it. * marks the point of attachment. ξ: configuration not given here. Cbz = O=C(OCc1ccccc1)*; ξL = CC(C)CC(N)C(=O)O; ξP = O=C(O)C1CCCN1
Outcome codes: active, inactive

[[record]]
compound = "Cc1ccccc1C(=O)Nc1ccccc1Sc1ccccc1"
category_label = "active"

[[record]]
compound = "COc1ccc(Cl)cc1NC(=O)CN(C)Cc1ccc(OC)c(OC)c1"
category_label = "active"

[[record]]
compound = "CCCCN(C(=O)c1ccc(C)o1)c1c(N)n(CCCC)c(=O)[nH]c1=O"
category_label = "inactive"

[[record]]
compound = "Cc1cccc(-n2cc(CN3CCN(C(=O)c4ncn[nH]4)CC3)c(-c3cccc(F)c3)n2)c1"
category_label = "active"

[[record]]
compound = "CC(C)CC(NC(=O)C1CCCN1C(=O)[C@@H](C)NC(=O)OCc1ccccc1)C(=O)NCC(N)=O (some centres undefined) (Cbz-[dA][ξP][ξL]G-NH2)"
category_label = "inactive"

[[record]]
compound = "CC(C)N(C(=O)CSc1nc(COc2ccccc2)nc2ccccc12)C(C)C"
category_label = "active"

[[record]]
compound = "CCC(O)C1CCN(Cc2cn(-c3ccc(OC)cc3)nc2-c2cccc(F)c2)CC1 (centres undefined)"
category_label = "inactive"

[[record]]
compound = "COc1ccc(Cl)cc1NC(=O)CN(C)C(=O)c1cc2ccccc2cc1OC"
category_label = "inactive"

[[record]]
compound = "CCCn1nc(C(=O)NNC(=O)CSCC(=O)Nc2cc(C)on2)c2ccccc2c1=O"
category_label = "inactive"

[[record]]
compound = "Cc1ccccc1C(=O)Nc1ccccc1NC(=O)c1ccccc1C"
category_label = "inactive"

[[record]]
compound = "Cc1cc(C)n2nc(C(=O)OC(C)C(=O)c3cc(C)c(C)cc3C)nc2n1 (centres undefined)"
category_label = "inactive"

[[record]]
compound = "CC(C)[C@H](NC(=O)OCc1ccccc1)C(=O)OCc1ccccc1"
category_label = "active"

[[record]]
compound = "O=C(NC1CCCCC1)c1ccc(-c2ccc(Cl)cc2)o1"
category_label = "inactive"

[[record]]
compound = "CC(C)C(NC(=O)OCc1ccccc1)C(=O)OCC(=O)N1C(C)CCCC1C (centres undefined)"
category_label = "active"

[[record]]
compound = "COc1ccc(COC(=O)NC(C(=O)O)c2ccccc2)cc1 (centres undefined)"
category_label = "inactive"

[[record]]
compound = "CCN1CCN(c2ccc(S(=O)(=O)N3CCCCC3)cc2NC(=O)c2cccc(NC(C)=O)c2)CC1"
category_label = "inactive"

[[record]]
compound = "COc1ccc(OC)c(NC(=O)CN(Cc2ccc(Cl)cc2)S(C)(=O)=O)c1"
category_label = "inactive"

[[record]]
compound = "O=C(Nc1ccon1)c1sc2ccccc2c1Cl"
category_label = "inactive"

[[record]]
compound = "O=C(COC(=O)c1ccccc1)Nc1ccccc1Sc1ccccc1"
category_label = "inactive"

